molecular target: h-P2X5 receptor (Homo sapiens); assay: Ca2+ influx assay
outcome.measure: EC50 (µM)
Report the value in µM with no unit label.

Value of EC50 reported for the compound Nc1ncnc2c1ncn2[C@@H]1O[C@H](COP(=O)(O)OP(=O)(O)OP(=O)(O)O)[C@@H](O)[C@H]1O [ATP, adenosine triphosphate, reference compound] is 10.6

###

molecular target: h-P2X5 receptor (Homo sapiens, UniProt Q93086); experiment: Ca2+ influx assay; type: cell-based; conditions: 1321-N1, read-out: h-P2X5 % inhibition
Sequence (Q93086 whole entry): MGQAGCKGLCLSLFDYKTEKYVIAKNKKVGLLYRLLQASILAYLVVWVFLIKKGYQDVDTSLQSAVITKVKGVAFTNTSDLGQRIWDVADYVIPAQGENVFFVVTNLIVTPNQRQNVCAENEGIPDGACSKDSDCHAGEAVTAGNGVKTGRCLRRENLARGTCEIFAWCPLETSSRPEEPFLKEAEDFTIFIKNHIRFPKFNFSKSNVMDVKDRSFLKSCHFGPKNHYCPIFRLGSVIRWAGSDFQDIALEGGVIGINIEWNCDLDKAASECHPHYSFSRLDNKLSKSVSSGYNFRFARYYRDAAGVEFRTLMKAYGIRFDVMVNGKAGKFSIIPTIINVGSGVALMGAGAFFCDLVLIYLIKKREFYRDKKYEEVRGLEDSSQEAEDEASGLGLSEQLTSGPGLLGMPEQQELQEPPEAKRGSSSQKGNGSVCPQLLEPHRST
outcome.measure: inhibition at 50 µM (%)
A number alone suffices; assume %.

{"columns": ["smiles.structure", "value.measured"],
 "data": [
  ["CC(=NNC(=O)c1ccccc1NS(C)(=O)=O)c1ccc(I)cc1", 21],
  ["CC(=NNC(=O)c1ccccc1NS(C)(=O)=O)c1sccc1Cl", 27],
  ["CC(=NNC(=O)c1ccccc1NS(C)(=O)=O)c1ccc(C)s1", 46],
  ["CC(=NNC(=O)c1ccccc1NS(C)(=O)=O)c1cc(C)cs1", 31],
  ["CC(=NNC(=O)c1ccccc1NS(C)(=O)=O)c1sccc1C", 12],
  ["CC(=NNC(=O)c1ccccc1NS(C)(=O)=O)c1cccs1", 29],
  ["CC(=NNC(=O)c1ccccc1NS(C)(=O)=O)c1ccc(Cl)cc1", 42],
  ["CC(=NNC(=O)c1ccccc1NS(C)(=O)=O)c1ccc(Br)cc1", 10],
  ["CC(=NNC(=O)c1ccccc1NS(C)(=O)=O)c1ccccc1", 20]
]}

# ---- query compound ----
Entry under test: `CC(=NNC(=O)c1ccccc1NS(C)(=O)=O)c1ccc(Cl)s1` . Its inhibition at 50 µM was 0
